Source listed as PubChem BioAssay AID2060898.

System: 616215-338-R-J1-PDC complex spheroid viability
protocolSummary: Anticancer human tumor 616215-338-R-J1-PDC patient-derived colon adenocarcinoma cell line growth inhibition [RAS]
experimentalContext: second compound 0.03 µM; first compound 0.01 µM; stronger effect = lower value
Description: RAS pathway inhibitors in Combinations in Complex Spheroids A high-throughput screen of multi-cell type tumor spheroids was designed to identify active combinations of RAS pathway inhibitors and targeted small molecules. Complex spheroids include a stromal component modeled by human endothelial cells (HUVEC) and fibroblasts modeled by human mesenchymal stem cells (MSCs). […] Compounds. […] If the clinical Cmax for an agent had not been determined, the highest concentration tested was 10 microM. […]
quantity: viability, T/C (%)
Lab book: enter the figure in %, no units written.

Examples with their reported viability, T/C follow.
>>> reading("O=C(c1ccc(F)c(F)c1Nc1ccc(I)cc1F)N1CC(O)([C@@H]2CCCCN2)C1 + CCn1c(-c2cccnc2C(C)OC)c2c3cc(ccc31)N1CCOC(CC(NC(=O)C(C(C)C)N(C)C(=O)C3(F)CCN(C(=O)C#CC(C)(C)N(C)C)CC3)C(=O)N3CCCC(N3)C(=O)OCC(C)(C)C2)C1")
93.9
>>> reading("C=CC(=O)Nc1cc(Nc2nccc(-c3cn(C)c4ccccc34)n2)c(OC)cc1N(C)CCN(C)C + CCn1c(-c2cccnc2C(C)OC)c2c3cc(ccc31)N1CCOC(CC(NC(=O)C(C(C)C)N(C)C(=O)C3(F)CCN(C(=O)C#CC(C)(C)N(C)C)CC3)C(=O)N3CCCC(N3)C(=O)OCC(C)(C)C2)C1")
105
>>> reading("CCN1CCN(Cc2ccc(Nc3ncc(F)c(-c4cc(F)c5nc(C)n(C(C)C)c5c4)n3)nc2)CC1 + CCn1c(-c2cccnc2C(C)OC)c2c3cc(ccc31)N1CCOC(CC(NC(=O)C(C(C)C)N(C)C(=O)C3(F)CCN(C(=O)C#CC(C)(C)N(C)C)CC3)C(=O)N3CCCC(N3)C(=O)OCC(C)(C)C2)C1")
105

Now take the following compound into account.
**Q:** Could you tell me which viability, T/C is on file for CC(C)n1nc(-c2ccc3oc(N)nc3c2)c2c(N)ncnc21 + CCn1c(-c2cc(N3CCN(C)CC3)cnc2C(C)OC)c2c3cc(ccc31)-c1csc(n1)CC(NC(=O)C1CC1C)C(=O)N1CCCC(N1)C(=O)OCC(C)(C)C2 ?
**A:** 37.3

----------
Test system: 616215-338-R-J1-PDC complex spheroid viability
protocolSummary: Anticancer human tumor 616215-338-R-J1-PDC cell line growth inhibition [RAS]; active means viability on the fitted dose curve at most 10% of control; inactive means the rest;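 note: spheroids exposed to agents for seven days before viability readout; 100% = DMSO vehicle control viability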
experimentalContext: second compound 0.316 µM; first compound 10 µM
Your response should consist of one outcome taken from active, inactive

Please review the following examples before continuing.
>>> labelclass("NC1c2ccccc2OC12CCN(c1cnc3c(N4CCCc5ncccc54)n[nH]c3n1)CC2 (configuration not stated) + C=CC(=O)N1CCN(c2nc(OCC3CCCN3C)nc3c(F)c(-c4nc(N)cc(C)c4C(F)(F)F)c(Cl)cc23)C(C)C1")
"inactive"
>>> labelclass("CC(Nc1ccc2c(c1)OCCn1cc(N3C(=O)OCC3C(F)F)nc1-2)C(N)=O (configuration not stated) + C#Cc1c(F)ccc2cc(O)cc(-c3ncc4c(N5CC6CCC(C5)N6)nc(OCC56CCCN5CC(F)C6)nc4c3F)c12")
"inactive"
>>> labelclass("NC1c2ccccc2OC12CCN(c1cnc3c(N4CCCc5ncccc54)n[nH]c3n1)CC2 (configuration not stated) + C#Cc1c(F)ccc2cc(O)cc(-c3ncc4c(N5CC6CCC(C5)N6)nc(OCC56CCCN5CC(F)C6)nc4c3F)c12")
"inactive"

# ---- query molecule ----
**Q:** What classification did CCC(CC)c1cc(NC2CCC(N)C2)n2nccc2n1 (configuration not stated) + C#Cc1c(F)ccc2cc(O)cc(-c3ncc4c(N5CC6CCC(C5)N6)nc(OCC56CCCN5CC(F)C6)nc4c3F)c12 end up with in this test?
**A:** active
